- Test Name: Oral bioavailability in human
- Format: ADME, organism-based
- Measurement Parameters: in vivo
Value Type: bioavailability (%)

IN: State, in one line, measured bioavailability of `CO[C@H]1/C=C/O[C@@]2(C)Oc3c(C)c(O)c4c(O)c(c(/C=N/N5CCN(C6CCCC6)CC5)c(O)c4c3C2=O)NC(=O)/C(C)=C\C=C\[C@H](C)[C@H](O)[C@@H](C)[C@@H](O)[C@@H](C)[C@H](OC(C)=O)[C@@H]1C`
OUT: 70

IN: State, in one line, measured bioavailability of `CO[C@H]1C[C@@H]2CC[C@@H](C)[C@@](O)(O2)C(=O)C(=O)N2CCCC[C@H]2C(=O)O[C@H]([C@H](C)C[C@@H]2CC[C@@H](OCCO)[C@H](OC)C2)CC(=O)[C@H](C)/C=C(\C)[C@@H](O)[C@@H](OC)C(=O)[C@H](C)C[C@H](C)/C=C/C=C/C=C/1C`
OUT: 20

1: CO[C@H]1/C=C/O[C@@]2(C)Oc3c(C)c(O)c4c(O)c(c(/C=N/N5CCN(C)CC5)c(O)c4c3C2=O)NC(=O)/C(C)=C\C=C\[C@H](C)[C@H](O)[C@@H](C)[C@@H](O)[C@@H](C)[C@H](OC(C)=O)[C@@H]1C
2: C=CC[C@@H]1/C=C(\C)C[C@H](C)C[C@H](OC)[C@H]2O[C@@](O)(C(=O)C(=O)N3CCCC[C@H]3C(=O)O[C@H](/C(C)=C/[C@@H]3CC[C@@H](O)[C@H](OC)C3)[C@H](C)[C@@H](O)CC1=O)[C@H](C)C[C@@H]2OC [TACROLIMUS ANHYDROUS]
IN: Between 1 and 2 , whose recorded bioavailability is greater? Please identify the chosen entry by its label.
OUT: 1
(1: 50%, 2: 15%)
